Source: ChEMBL document CHEMBL1148775

assay: Biodistribution in iv dosed Sprague-Dawley rat striatum in presence of RTI-113 at 6 mg/kg after 60 mins; type: ADME, organism-based; set-up: dose 6 mg/kg, route intravenous; settings: read-out: Drug uptake
quantity_measured: tissue uptake at 1 h (%ID/g)
Lab book: enter the figure in %ID/g, no units written.

Tell me the measured tissue uptake at 1 h of O=C(OCCF)C1C2CCC(CC1c1ccc(/C=C\[123I])cc1)N2 (stereo unspecified) , please.
0.26

====

test: Biodistribution in iv dosed Sprague-Dawley rat pons in presence of RTI-113 at 6 mg/kg after 60 mins; type: ADME, organism-based; set-up: dose 6 mg/kg, route intravenous; conditions: read-out: Drug uptake
quantity_measured: tissue uptake at 1 h (%ID/g)
Lab book: enter the figure in %ID/g, no units written.

Tell me the measured tissue uptake at 1 h of O=C(OCCF)C1C2CCC(CC1c1ccc(/C=C\[123I])cc1)N2 (stereo unspecified) , please.
0.22

====

assay: Biodistribution in iv dosed Sprague-Dawley rat cerebellum after 60 mins; type: ADME, organism-based; conditions: read-out: Drug uptake
quantity_measured: tissue uptake at 1 h (%ID/g)
Lab book: enter the figure in %ID/g, no units written.

Tell me the measured tissue uptake at 1 h of O=C(OCCF)C1C2CCC(CC1c1ccc(/C=C\[123I])cc1)N2 (stereo unspecified) , please.
0.12

====

molecular target: Sodium-dependent serotonin transporter (Homo sapiens)
Sequence (P31645 whole entry): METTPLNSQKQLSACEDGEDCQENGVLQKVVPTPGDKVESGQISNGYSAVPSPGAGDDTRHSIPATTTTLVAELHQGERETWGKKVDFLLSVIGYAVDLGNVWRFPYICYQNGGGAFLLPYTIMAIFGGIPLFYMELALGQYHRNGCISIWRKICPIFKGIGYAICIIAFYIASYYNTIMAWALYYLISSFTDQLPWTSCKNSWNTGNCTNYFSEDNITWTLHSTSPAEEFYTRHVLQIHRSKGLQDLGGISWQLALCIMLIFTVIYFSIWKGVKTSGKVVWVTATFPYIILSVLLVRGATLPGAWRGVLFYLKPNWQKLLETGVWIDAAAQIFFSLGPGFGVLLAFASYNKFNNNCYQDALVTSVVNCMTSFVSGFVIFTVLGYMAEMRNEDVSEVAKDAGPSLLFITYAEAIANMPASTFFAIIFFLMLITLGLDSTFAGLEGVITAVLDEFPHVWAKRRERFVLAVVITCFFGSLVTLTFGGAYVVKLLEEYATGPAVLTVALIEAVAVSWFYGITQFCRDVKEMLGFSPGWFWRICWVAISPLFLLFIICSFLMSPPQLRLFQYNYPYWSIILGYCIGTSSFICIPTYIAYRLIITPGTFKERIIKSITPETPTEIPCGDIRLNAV
quantity_measured: Ki (nM)
Lab book: enter the figure in nM, no units written.

Tell me the measured Ki of O=C(OCCF)C1C2CCC(CC1c1ccc(/C=C\I)cc1)N2 (stereo unspecified) , please.
0.08

====

target: Sodium-dependent noradrenaline transporter (Homo sapiens, UniProt P23975)
Sequence (P23975 whole entry): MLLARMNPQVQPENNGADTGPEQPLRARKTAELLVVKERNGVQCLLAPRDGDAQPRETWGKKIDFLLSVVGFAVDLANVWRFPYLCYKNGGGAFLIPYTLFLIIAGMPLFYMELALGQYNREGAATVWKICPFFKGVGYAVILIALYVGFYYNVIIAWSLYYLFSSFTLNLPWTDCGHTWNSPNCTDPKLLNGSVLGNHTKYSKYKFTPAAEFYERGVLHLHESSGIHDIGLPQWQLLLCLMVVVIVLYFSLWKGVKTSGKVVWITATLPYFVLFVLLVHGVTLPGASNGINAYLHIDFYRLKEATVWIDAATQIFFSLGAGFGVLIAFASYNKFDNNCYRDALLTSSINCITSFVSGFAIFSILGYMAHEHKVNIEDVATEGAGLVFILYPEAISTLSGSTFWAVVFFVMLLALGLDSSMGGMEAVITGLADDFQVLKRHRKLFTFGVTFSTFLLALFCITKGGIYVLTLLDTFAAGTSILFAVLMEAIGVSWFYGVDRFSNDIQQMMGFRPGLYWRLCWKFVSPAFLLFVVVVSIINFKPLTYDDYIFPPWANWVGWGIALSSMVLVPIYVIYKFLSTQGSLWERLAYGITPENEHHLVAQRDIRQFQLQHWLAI
quantity_measured: pKi
# log scale: pKi equals minus log10 of the concentration in mol/L

Tell me the measured pKi of O=C(OCCF)C1C2CCC(CC1c1ccc(/C=C\I)cc1)N2 (stereo unspecified) , please.
7.55

====

assay: Biodistribution in iv dosed Sprague-Dawley rat hippocampus in presence of RTI-113 at 6 mg/kg after 60 mins; type: ADME, organism-based; set-up: dose 6 mg/kg, route intravenous; conditions: read-out: Drug uptake
quantity_measured: tissue uptake at 1 h (%ID/g)
Lab book: enter the figure in %ID/g, no units written.

Tell me the measured tissue uptake at 1 h of O=C(OCCF)C1C2CCC(CC1c1ccc(/C=C\[123I])cc1)N2 (stereo unspecified) , please.
0.25

====

test: Biodistribution in iv dosed Sprague-Dawley rat occipital cortex in presence of RTI-113 at 6 mg/kg after 60 mins; assay type: ADME, organism-based; parameters: dose 6 mg/kg, route intravenous; conditions: read-out: Drug uptake
quantity_measured: tissue uptake at 1 h (%ID/g)
Lab book: enter the figure in %ID/g, no units written.

Tell me the measured tissue uptake at 1 h of O=C(OCCF)C1C2CCC(CC1c1ccc(/C=C\[123I])cc1)N2 (stereo unspecified) , please.
0.24

====

test: Biodistribution in iv dosed Sprague-Dawley rat hypothalamus after 60 mins; type: ADME, organism-based; settings: read-out: Drug uptake
quantity_measured: tissue uptake at 1 h (%ID/g)
Lab book: enter the figure in %ID/g, no units written.

Tell me the measured tissue uptake at 1 h of O=C(OCCF)C1C2CCC(CC1c1ccc(/C=C\[123I])cc1)N2 (stereo unspecified) , please.
0.27

====

assay: Biodistribution in iv dosed Sprague-Dawley rat striatum in after 60 mins; type: ADME, organism-based; conditions: read-out: Drug uptake
quantity_measured: tissue uptake at 1 h (%ID/g)
Lab book: enter the figure in %ID/g, no units written.

Tell me the measured tissue uptake at 1 h of O=C(OCCF)C1C2CCC(CC1c1ccc(/C=C\[123I])cc1)N2 (stereo unspecified) , please.
0.25

====

assay: Biodistribution in iv dosed Sprague-Dawley rat occipital cortex in presence of citalopram at 6 mg/kg after 60 mins; assay type: ADME, organism-based; set-up: dose 6 mg/kg, route intravenous; settings: read-out: Drug uptake
quantity_measured: tissue uptake at 1 h (%ID/g)
Lab book: enter the figure in %ID/g, no units written.

Tell me the measured tissue uptake at 1 h of O=C(OCCF)C1C2CCC(CC1c1ccc(/C=C\[123I])cc1)N2 (stereo unspecified) , please.
0.16

====

assay: Biodistribution in iv dosed Sprague-Dawley rat hypothalamus in presence of RTI-113 at 6 mg/kg after 60 mins; format: ADME, organism-based; design: dose 6 mg/kg, route intravenous; conditions: read-out: Drug uptake
quantity_measured: tissue uptake at 1 h
Please state the number and follow it with the unit.

Tell me the measured tissue uptake at 1 h of O=C(OCCF)C1C2CCC(CC1c1ccc(/C=C\[123I])cc1)N2 (stereo unspecified) , please.
0.32 %ID/g

====

test: Biodistribution in iv dosed Sprague-Dawley rat hippocampus in presence of citalopram at 6 mg/kg after 60 mins; format: ADME, organism-based; design: dose 6 mg/kg, route intravenous; details: read-out: Drug uptake
quantity_measured: tissue uptake at 1 h (%ID/g)
Lab book: enter the figure in %ID/g, no units written.

Tell me the measured tissue uptake at 1 h of O=C(OCCF)C1C2CCC(CC1c1ccc(/C=C\[123I])cc1)N2 (stereo unspecified) , please.
0.16

====

assay: Biodistribution in iv dosed Sprague-Dawley rat hippocampus after 60 mins; format: ADME, organism-based; details: read-out: Drug uptake
quantity_measured: tissue uptake at 1 h (%ID/g)
Lab book: enter the figure in %ID/g, no units written.

Tell me the measured tissue uptake at 1 h of O=C(OCCF)C1C2CCC(CC1c1ccc(/C=C\[123I])cc1)N2 (stereo unspecified) , please.
0.24

====

experiment: Biodistribution in iv dosed Sprague-Dawley rat cerebellum in presence of reboxetine at 6 mg/kg after 60 mins; format: ADME, organism-based; design: dose 6 mg/kg, route intravenous; details: read-out: Drug uptake
quantity_measured: tissue uptake at 1 h (%ID/g)
Lab book: enter the figure in %ID/g, no units written.

Tell me the measured tissue uptake at 1 h of O=C(OCCF)C1C2CCC(CC1c1ccc(/C=C\[123I])cc1)N2 (stereo unspecified) , please.
0.13
